Target: T1, corticotropin-releasing hormone (CRH) peptide (human and mouse, not fully specified)
T1 peptide: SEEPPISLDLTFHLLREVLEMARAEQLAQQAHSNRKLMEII
Test: cell-based or functional assay
Test Readout: hCRHR1 Reporter IC50 (nM)
Answer format: numeric, nM implied, no suffix.

Guide cases for hCRHR1 Reporter IC50, answers given:
[[record]]
binder = "PR302312 (antibody, human IgG1, kappa, V domains shown, Mouse variable domains, expressed recombinantly with human IgG1 wildtype Fc; also called Series 10 mAb) VH: EVQLQQSGPELVKPGASVKMSCKASGYTFTDYFMKWMKQSHGKSLEWIGVINPNNGDTFYNQNFKGKATLTVDKSSSTAYMQLNSLTSEDSAVYYCTRGTARALFAYWGQGTLVTVSA VL: DVLMTQTPLSLPVSLGDQASISCRSSQSIVHSDGNTYLEWYLQRPGQSPKLLIYKVSNRFSGVPDRFSGSGSGTDFTLKISRVGAEDLGVYYCFQGSHVPWTFGGGTKLEVKR"
test_readout = "hCRHR1 Reporter IC50"
unit_spec = "nM"
observed_result = 1.37

[[record]]
binder = "PR302324 (antibody, human IgG1, kappa, V domains shown, Mouse variable domains, expressed recombinantly with human IgG1 wildtype Fc; also called Series 10 mAb) VH: EVQLQQSGPELVKPGASVKMSCKASGYTFTDYFMKWVKQSHGGSLEWIGVISPNNGDTFYNQKFKGKATLTVDKSSSTAFMQLNSLTSEDSAVYSCARGTDRALFAYWGQGTLVTVSA VL: DVLMTQTPLSLPVSLGDQASISCRSSQSIVHSDGNTYLEWYLQRPGQSPKLLIYKVSNRFSGVPDRFSGSGSGTDFTLKISRVGAEDLGVYYCFQGSHIPWTFGGGTKLEVKR"
test_readout = "hCRHR1 Reporter IC50"
unit_spec = "nM"
observed_result = 0.498


Query binder follows.
Query block: I am curious: what hCRHR1 Reporter IC50 value has been reported for PR302334 (antibody, human IgG1, kappa, V domains shown, Mouse variable domains, expressed recombinantly with human IgG1 wildtype Fc; also called Series 9 mAb) VH: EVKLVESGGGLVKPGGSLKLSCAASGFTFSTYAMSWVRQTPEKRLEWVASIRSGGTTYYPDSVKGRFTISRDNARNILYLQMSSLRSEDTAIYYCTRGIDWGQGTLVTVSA VL: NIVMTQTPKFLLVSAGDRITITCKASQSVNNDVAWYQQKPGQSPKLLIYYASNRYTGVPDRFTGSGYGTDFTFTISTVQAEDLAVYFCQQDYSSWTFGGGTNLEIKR ?
Result block: 0.546

Where do these numbers come from? They come from patent US20260042834A1.
